# assayed_system: His6-AspH315–758 (human aspartate/asparagine-β-hydroxylase, AspH) (Homo sapiens)
# Construct: N-Terminally His6-tagged human AspH315–758 (His6-AspH315–758) was produced in E. coli BL21 (DE3) cells; made in house; host or cells: E. coli BL21 (DE3), pET-28a(+) vector
# experimental_protocol: SPE-MS AspH inhibition assay (LOPAC screen at fixed 20 μM and IC50 dose-response), hydroxylation of cyclic peptide hFX-CP101–119
# Type: biochemical
# run_conditions: LOPAC compound at 20uM, plate 2; conversion of substrate peptide
Where a name gives a salt, the structure may show the parent alone.
property_name: Plate 2 (% conversion)

# annotated cases, reported Plate 2 (% conversion) shown
| compound | Plate 2 (% conversion) |
| --- | --- |
| CNCCCN1c2ccccc2CCc2ccccc21 [Desipramine hydrochloride] | 40.94% |
| CNCC(O)c1ccc(O)c(O)c1.Cl (racemic) [(±)-Epinephrine hydrochloride] | 6.18% |
| CC(C)(Sc1ccc(CCN(CCCCC2CCCCC2)C(=O)NC2CCCCC2)cc1)C(=O)O [GW7647] | 29.96% |
| O=C(c1ccc2c(c1)OCCO2)N1CCCCC1 [CX 546] | 39.70% |
| O=C1c2ccccc2C(=O)c2c(NCCc3ccc(O)cc3)ccc(NCCc3ccc(O)cc3)c21 [JFD00244] | 12.89% |
| CC(C)NC[C@H](O)c1ccc(O)c(O)c1.O=C(O)C(O)C(O)C(=O)O [R(-)-Isoproterenol (+)-bitartrate] | 5.85% |
| CC(C)[C@@H]1CC[C@@H](C)C[C@@H]1P(=O)(c1ccccc1)c1ccccc1 [DPO-1] | 40.63% |
| Oc1c2ccccc2c2c3c(cccc13)N=N2 [SP600125] | 37.53% |

Query (compound): COC(=O)[C@@H](N)Cc1ccc(O)c(O)c1.Cl ; field requested: Plate 2 (% conversion) 10.54%

----------
# assayed_system: His6-AspH315–758 (human aspartate/asparagine-β-hydroxylase, AspH) (Homo sapiens)
# Construct: N-Terminally His6-tagged human AspH315–758 (His6-AspH315–758) was produced in E. coli BL21 (DE3) cells; made in house; host or cells: E. coli BL21 (DE3), pET-28a(+) vector
# Sequence (Q12797 315-758): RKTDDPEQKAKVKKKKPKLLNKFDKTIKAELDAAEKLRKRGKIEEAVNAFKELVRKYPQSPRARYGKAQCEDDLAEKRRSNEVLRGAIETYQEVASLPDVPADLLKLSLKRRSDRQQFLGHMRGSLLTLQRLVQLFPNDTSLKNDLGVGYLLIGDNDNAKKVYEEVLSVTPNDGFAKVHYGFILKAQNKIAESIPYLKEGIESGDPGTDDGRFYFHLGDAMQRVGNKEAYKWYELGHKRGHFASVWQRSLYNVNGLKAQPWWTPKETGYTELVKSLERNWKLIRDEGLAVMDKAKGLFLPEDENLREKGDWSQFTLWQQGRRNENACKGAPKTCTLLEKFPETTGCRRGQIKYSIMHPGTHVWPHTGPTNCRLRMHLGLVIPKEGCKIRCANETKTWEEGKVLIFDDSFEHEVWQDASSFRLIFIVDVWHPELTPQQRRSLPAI
# experimental_protocol: SPE-MS AspH inhibition assay (LOPAC screen at fixed 20 μM and IC50 dose-response), hydroxylation of cyclic peptide hFX-CP101–119
# Format: biochemical
Counter-ions that a name gives are not always drawn.
Think of 30% as a floor: if % conversion stands on it or above, it is 1; beneath it, -1.

See these solved cases before continuing.
| compound | assayed_system | cat |
| --- | --- | --- |
| N[C@@H]1C[C@H]1c1ccccc1 [Tranylcypromine hydrochloride] | His6-AspH315–758 (human aspartate/asparagine-β-hydroxylase, AspH) (Homo sapiens) | 1 |
| O=C(O)CNC(=O)C(CS)Cc1ccccc1 (racemic) [DL-Thiorphan] | His6-AspH315–758 (human aspartate/asparagine-β-hydroxylase, AspH) (Homo sapiens) | 1 |
| Cc1ccc(S(=O)(=O)N[C@@H](CCCCN)C(=O)CCl)cc1.Cl | His6-AspH315–758 (human aspartate/asparagine-β-hydroxylase, AspH) (Homo sapiens) | 1 |
| Cl.Cl.O=c1ccc2[nH]cc(C3=CCNCC3)c2[nH]1 [CP-93129 dihydrochloride hydrate] | His6-AspH315–758 (human aspartate/asparagine-β-hydroxylase, AspH) (Homo sapiens) | 1 |
| Nc1c(S(=O)(=O)O)cc(Nc2ccc(Nc3nc(Cl)nc(Nc4cccc(S(=O)(=O)O)c4)n3)c(S(=O)(=O)O)c2)c2c1C(=O)c1ccccc1C2=O [Reactive Blue 2, reference compound] | His6-AspH315–758 (human aspartate/asparagine-β-hydroxylase, AspH) (Homo sapiens) | -1 |
| CN1C2CCC1CC(OC(=O)c1c[nH]c3ccccc13)C2.Cl (stereo not shown) | His6-AspH315–758 (human aspartate/asparagine-β-hydroxylase, AspH) (Homo sapiens) | 1 |
| S=C(NC1CCCCC1)N1CCC(c2cnc[nH]2)CC1 [Thioperamide maleate] | His6-AspH315–758 (human aspartate/asparagine-β-hydroxylase, AspH) (Homo sapiens) | 1 |
| CN1CCc2cccc(Cl)c2CC1 [SKF 86466] | His6-AspH315–758 (human aspartate/asparagine-β-hydroxylase, AspH) (Homo sapiens) | 1 |
| O=C(O)[C@H]1CCCN[C@H]1C(=O)O (racemic) [(±)-cis-Piperidine-2,3-dicarboxylic acid] | His6-AspH315–758 (human aspartate/asparagine-β-hydroxylase, AspH) (Homo sapiens) | 1 |
| C[N+](C)(C)CCOC(=O)CCC(=O)OCC[N+](C)(C)C [Succinylcholine chloride] | His6-AspH315–758 (human aspartate/asparagine-β-hydroxylase, AspH) (Homo sapiens) | 1 |

I'd appreciate it if you could say whether Cn1ccc2cc3c(cc21)CCN3C(=O)Nc1cccnc1 [SB 206553 hydrochloride] has % conversion at least equal to 30%. -1

Tell me whether % conversion is at least 30% here: CCCCCCNC(=O)n1cc(F)c(=O)[nH]c1=O [Carmofur] 1
